// data source = patent US4696912A

Assay: Stability in aqueous solution (HPLC assay)
Assay type: physicochemical
Settings: aqueous solution, Table 2, aqueous solution 15 mg/mL, 37° C., 7 days; read-out: % CL-1565-A Remaining
readout: remaining at 168 h (%)

| compound | readout | observed.value |
| --- | --- | --- |
| CC(O)(C=CC1CC=CC(=O)O1)C(CC(O)C=CC=CC=CCO)OP(=O)(O)O (stereo not shown) [CL-1565-A] | remaining at 168 h | 35 |

----------
Assay: Stability in aqueous solution (HPLC assay)
Assay type: physicochemical
Settings: aqueous solution, Table 2, aqueous solution 5 mg/mL, 25° C., 7 days; read-out: % CL-1565-A Remaining

| molecule | remaining at 168 h |
| --- | --- |
| CC(O)(C=CC1CC=CC(=O)O1)C(CC(O)C=CC=CC=CCO)OP(=O)(O)O (stereo not shown) | 77% |

----------
Test: Stability in solid state form (HPLC assay)
Assay type: physicochemical
Details: Table 3, solid form, -15°, 3 months, read-out: % CL-1565-A Remaining

| molecule | remaining at 2160 h / % |
| --- | --- |
| CC(O)(C=CC1CC=CC(=O)O1)C(CC(O)C=CC=CC=CCO)OP(=O)(O)O (stereo not shown) [CL-1565-A] | 100 |

----------
Assay: Stability in solid state form (HPLC assay)
Assay type: physicochemical
Conditions: Table 1, solid state, -15° C., 5 weeks, read-out: % CL-1565-A Remaining
readout: remaining at 840 h (%)

| molecule | readout | observed.value |
| --- | --- | --- |
| CC(O)(C=CC1CC=CC(=O)O1)C(CC(O)C=CC=CC=CCO)OP(=O)(O)O (stereo not shown) | remaining at 840 h | 100 |

----------
Assay: Stability in solid state form (HPLC assay)
Type: physicochemical
Conditions: Table 3, solid form, -15°, 23 months, read-out: % CL-1565-A Remaining
readout: remaining at 16560 h (%)

| compound | observed.value |
| --- | --- |
| CC(O)(C=CC1CC=CC(=O)O1)C(CC(O)C=CC=CC=CCO)OP(=O)(O)O (stereo not shown) | 100 |

----------
Assay: Stability in aqueous solution (HPLC assay)
Format: physicochemical
Conditions: aqueous solution, Table 4, aqueous solution 15 mg/mL, 25° C., 23 days; read-out: % CL-1565-A Remaining
readout: remaining at 552 h (%)

| molecule | readout | observed.value |
| --- | --- | --- |
| CC(O)(C=CC1CC=CC(=O)O1)C(CC(O)C=CC=CC=CCO)OP(=O)(O)O (stereo not shown) [CL-1565-A] | remaining at 552 h | 42 |

----------
Test: Stability in solid state form (HPLC assay)
Format: physicochemical
Conditions: Table 3, solid form, 5°, 5 months, read-out: % CL-1565-A Remaining
readout: remaining at 3600 h (%)

| compound | readout | observed.value |
| --- | --- | --- |
| CC(O)(C=CC1CC=CC(=O)O1)C(CC(O)C=CC=CC=CCO)OP(=O)(O)O (stereo not shown) | remaining at 3600 h | 86 |

----------
Assay: Stability in aqueous solution (HPLC assay)
Type: physicochemical
Conditions: water; 23 days, 15 mg/mL in aqueous solution; read-out: decomposition

| molecule | degraded at 552 h (%) |
| --- | --- |
| CC(O)(C=CC1CC=CC(=O)O1)C(CC(O)C=CC=CC=CCO)OP(=O)(O)O (stereo not shown) | 48 |

----------
Test: Stability in solid state form (HPLC assay)
Type: physicochemical
Conditions: Table 3, solid form, 5°, 23 months, read-out: % CL-1565-A Remaining

| compound | remaining at 16560 h (%) |
| --- | --- |
| CC(O)(C=CC1CC=CC(=O)O1)C(CC(O)C=CC=CC=CCO)OP(=O)(O)O (stereo not shown) [CL-1565-A] | 74 |

----------
Assay: Stability in solid state form (HPLC assay)
Type: physicochemical
Conditions: Table 1, solid state, 5° C., 5 weeks, read-out: % CL-1565-A Remaining

| compound | unit.of.measurement | remaining at 840 h |
| --- | --- | --- |
| CC(O)(C=CC1CC=CC(=O)O1)C(CC(O)C=CC=CC=CCO)OP(=O)(O)O (stereo not shown) | % | 100 |

----------
Assay: Stability in solid state form (HPLC assay)
Assay type: physicochemical
Details: Table 1, solid state, 25° C., 5 weeks, read-out: % CL-1565-A Remaining
readout: remaining at 840 h (%)

| compound | observed.value |
| --- | --- |
| CC(O)(C=CC1CC=CC(=O)O1)C(CC(O)C=CC=CC=CCO)OP(=O)(O)O (stereo not shown) | 69 |

----------
Assay: Stability in solid state form (HPLC assay)
Format: physicochemical
Conditions: Table 1, solid state, -15° C., 1 week, read-out: % CL-1565-A Remaining
readout: remaining at 168 h (%)

| molecule | unit.of.measurement | observed.value |
| --- | --- | --- |
| CC(O)(C=CC1CC=CC(=O)O1)C(CC(O)C=CC=CC=CCO)OP(=O)(O)O (stereo not shown) | % | 100 |

----------
Test: Stability in aqueous solution (HPLC assay)
Format: physicochemical
Conditions: aqueous solution, Table 2, aqueous solution 5 mg/mL, 5° C., 14 days; read-out: % CL-1565-A Remaining
readout: remaining at 336 h (%)

| compound | observed.value |
| --- | --- |
| CC(O)(C=CC1CC=CC(=O)O1)C(CC(O)C=CC=CC=CCO)OP(=O)(O)O (stereo not shown) | 83 |

----------
Experiment: Stability in solid state form (HPLC assay)
Format: physicochemical
Conditions: Table 1, solid state, 25° C., 3 weeks, read-out: % CL-1565-A Remaining
readout: remaining at 504 h (%)

| molecule | readout | unit.of.measurement | observed.value |
| --- | --- | --- | --- |
| CC(O)(C=CC1CC=CC(=O)O1)C(CC(O)C=CC=CC=CCO)OP(=O)(O)O (stereo not shown) | remaining at 504 h | % | 77 |

----------
Experiment: Stability in aqueous solution (HPLC assay)
Assay type: physicochemical
Details: aqueous solution, Table 2, aqueous solution 15 mg/mL, 25° C., 23 days; read-out: % CL-1565-A Remaining
readout: remaining at 552 h (%)

| compound | unit.of.measurement | observed.value |
| --- | --- | --- |
| CC(O)(C=CC1CC=CC(=O)O1)C(CC(O)C=CC=CC=CCO)OP(=O)(O)O (stereo not shown) | % | 42 |

----------
Assay: Stability in aqueous solution (HPLC assay)
Format: physicochemical
Details: aqueous solution, Table 2, aqueous solution 15 mg/mL, 25° C., 7 days; read-out: % CL-1565-A Remaining
readout: remaining at 168 h (%)

| molecule | unit.of.measurement | observed.value |
| --- | --- | --- |
| CC(O)(C=CC1CC=CC(=O)O1)C(CC(O)C=CC=CC=CCO)OP(=O)(O)O (stereo not shown) [CL-1565-A] | % | 67 |

----------
Assay: Stability in solid state form (HPLC assay)
Format: physicochemical
Details: Table 3, solid form, 5°, 3 months, read-out: % CL-1565-A Remaining

| compound | unit.of.measurement | remaining at 2160 h |
| --- | --- | --- |
| CC(O)(C=CC1CC=CC(=O)O1)C(CC(O)C=CC=CC=CCO)OP(=O)(O)O (stereo not shown) | % | 88 |

----------
Experiment: Stability in solid state form (HPLC assay)
Format: physicochemical
Conditions: Table 3, solid form, 25°, 3 months, read-out: % CL-1565-A Remaining

| molecule | remaining at 2160 h (%) |
| --- | --- |
| CC(O)(C=CC1CC=CC(=O)O1)C(CC(O)C=CC=CC=CCO)OP(=O)(O)O (stereo not shown) | 61 |

----------
Assay: Stability in aqueous solution (HPLC assay)
Format: physicochemical
Conditions: aqueous solution, Table 2, aqueous solution 5 mg/mL, 25° C., 23 days; read-out: % CL-1565-A Remaining

| compound | remaining at 552 h / % |
| --- | --- |
| CC(O)(C=CC1CC=CC(=O)O1)C(CC(O)C=CC=CC=CCO)OP(=O)(O)O (stereo not shown) [CL-1565-A] | 45 |

----------
Experiment: Stability in aqueous solution (HPLC assay)
Assay type: physicochemical
Conditions: aqueous solution, Table 2, aqueous solution 15 mg/mL, 5° C., 14 days; read-out: % CL-1565-A Remaining

| compound | remaining at 336 h / % |
| --- | --- |
| CC(O)(C=CC1CC=CC(=O)O1)C(CC(O)C=CC=CC=CCO)OP(=O)(O)O (stereo not shown) | 76 |

----------
Assay: Stability in aqueous solution (HPLC assay)
Format: physicochemical
Conditions: aqueous solution, Table 4, aqueous solution 15 mg/mL, 5° C., 2 days; read-out: % CL-1565-A Remaining
readout: remaining at 48 h

| compound | readout | observed.value |
| --- | --- | --- |
| CC(O)(C=CC1CC=CC(=O)O1)C(CC(O)C=CC=CC=CCO)OP(=O)(O)O (stereo not shown) [CL-1565-A] | remaining at 48 h | 90% |
